Molecular target: T1, GST-INADL PDZ domain 3 (Homo sapiens (Human)), Q8NI35
T1 chain: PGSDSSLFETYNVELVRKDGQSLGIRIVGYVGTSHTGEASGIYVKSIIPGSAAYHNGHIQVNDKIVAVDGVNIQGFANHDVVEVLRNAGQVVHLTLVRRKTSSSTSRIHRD
Test: G' assay; further: key of the grades not given here
Hi there, I'd appreciate the recorded Classification for every entry that follows.
Answers are plain numbers, in A450 class.

Some binders with recorded Classification:
[[record]]
binder = "LASKSAEEGKQIPDSLSTDL (modifications not checked) [DOCK2]"
attribute_measured = "Classification"
unit_symbol = "A450 class"
endpoint_result = 1

[[record]]
binder = "YSQPSARSEGEFKQTSSFLV (modifications not checked) [JAM (junctional adhesion molecule)]"
attribute_measured = "Classification"
unit_symbol = "A450 class"
endpoint_result = 1

[[record]]
binder = "HHLVAQRDIRQFQLQHWLAI (modifications not checked) [noradrenaline transporter]"
attribute_measured = "Classification"
unit_symbol = "A450 class"
endpoint_result = 3

[[record]]
binder = "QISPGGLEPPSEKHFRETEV (modifications not checked) [TAX]"
attribute_measured = "Classification"
unit_symbol = "A450 class"
endpoint_result = 1


Hi, could you look up Classification for each item in my list?
1. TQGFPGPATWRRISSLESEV (modifications not checked) [NMDA Glutamate Receptor 2C (cysteine-free)]
2. HDFRRAFKKILARGDRKRIV (modifications not checked) [alpha-2A Adrenergic receptor]
3. VPGALDYAAFSSALYGESDL (modifications not checked) [a-actinin 2]

Response line:
1: 2; 2: 2; 3: 1
